Just for reference, patent US20210255193A1 is where these values come from.

- Target entity: PFKL 6-phosphofructokinase, liver type (Homo sapiens, UniProt P17858)
- Construct: isoTOP-ABPP experiments performed in cell lysates (in vitro); endogenous in cells; host or cells: soluble proteome of human cancer cell lines (MDA-MB-231; Ramos and Jurkat also prepared)
- Sequence (P17858 1-780): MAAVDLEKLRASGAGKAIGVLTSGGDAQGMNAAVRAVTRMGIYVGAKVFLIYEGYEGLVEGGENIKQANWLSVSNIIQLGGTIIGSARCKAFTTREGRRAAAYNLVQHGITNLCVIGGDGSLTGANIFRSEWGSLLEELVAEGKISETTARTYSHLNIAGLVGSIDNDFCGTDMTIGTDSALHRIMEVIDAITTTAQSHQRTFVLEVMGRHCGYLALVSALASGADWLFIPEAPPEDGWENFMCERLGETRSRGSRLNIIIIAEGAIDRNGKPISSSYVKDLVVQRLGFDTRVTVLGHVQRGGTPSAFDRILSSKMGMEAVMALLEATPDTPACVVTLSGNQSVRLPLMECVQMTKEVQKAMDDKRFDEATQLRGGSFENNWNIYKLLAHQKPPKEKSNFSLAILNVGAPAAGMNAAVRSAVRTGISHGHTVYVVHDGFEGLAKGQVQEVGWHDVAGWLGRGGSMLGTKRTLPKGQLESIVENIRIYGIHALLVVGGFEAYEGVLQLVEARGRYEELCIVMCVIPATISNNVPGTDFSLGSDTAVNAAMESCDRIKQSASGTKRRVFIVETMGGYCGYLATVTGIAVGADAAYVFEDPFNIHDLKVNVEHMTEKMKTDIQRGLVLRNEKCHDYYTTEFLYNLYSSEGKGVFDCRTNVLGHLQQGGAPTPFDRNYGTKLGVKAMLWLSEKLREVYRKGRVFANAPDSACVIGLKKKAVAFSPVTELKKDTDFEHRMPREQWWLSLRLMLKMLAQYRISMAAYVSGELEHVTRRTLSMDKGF
- Test summary: competitive isoTOP-ABPP
- Assay type: binding
- Cond: 50 uM, in vitro, sol, 231
Measured metric: isoTOP-ABPP ratio (R) at liganded lysine P17858_K677
# print the numeric value only

Use these answered entries as a reference point.
Molecule | Result number
O=C(Oc1ccc([N+](=O)[O-])cc1[N+](=O)[O-])C(c1ccccc1)(c1ccccc1)c1ccccc1 [fragment 42, 2,4-Dinitrophenyl 2,2,2-triphenylacetate] | 0.8
O=C(CCc1coc2cc(F)ccc2c1=O)Oc1ccc([N+](=O)[O-])cc1[N+](=O)[O-] | 20.0

## Task Requested read-out: isoTOP-ABPP ratio (R) at liganded lysine P17858_K677. Entry: O=C(Oc1ccc([N+](=O)[O-])cc1[N+](=O)[O-])c1ccc(-c2ccccc2)cc1
## Result 1.1

###

Let's look at some compounds and their measured R value (DMSO/fragment) for probe 1 labeling.
- Target entity: TSTA3 GDP-L-fucose synthase (Homo sapiens)
- Construct: isoTOP-ABPP experiments performed in cell lysates (in vitro); endogenous in cells; host or cells: soluble proteome of human cancer cell lines (MDA-MB-231, Ramos, Jurkat)
- Sequence (Q13630 whole entry): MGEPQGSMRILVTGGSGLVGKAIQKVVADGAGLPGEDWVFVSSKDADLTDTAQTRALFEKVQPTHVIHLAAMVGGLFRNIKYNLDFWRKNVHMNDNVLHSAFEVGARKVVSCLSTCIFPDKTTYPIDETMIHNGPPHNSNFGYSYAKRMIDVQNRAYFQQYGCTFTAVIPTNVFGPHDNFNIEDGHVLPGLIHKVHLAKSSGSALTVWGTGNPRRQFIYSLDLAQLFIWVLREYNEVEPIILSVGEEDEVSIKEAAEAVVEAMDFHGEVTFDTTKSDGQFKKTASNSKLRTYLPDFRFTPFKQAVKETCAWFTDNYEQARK
- Test summary: competitive isoTOP-ABPP
- Assay type: binding
- Cond: Q13630_K108; 50 uM, 231 sol, in vitro
// no unit string in output, number only

Below, 3 compounds whose answers are already recorded.
Compound | Result number
COc1cc(CCC(=O)Oc2c(F)c(F)c(F)c(F)c2F)cc(OC)c1OC [fragment 23] | 1.0
Cn1cc(CC(=O)Oc2c(F)c(F)c(F)c(F)c2F)c2ccccc21 [fragment 22] | 1.1
O=C(Oc1c(F)c(F)c(F)c(F)c1F)c1cc(C(F)(F)F)cc(C(F)(F)F)c1 [fragment 21] | 1.0

Next, consider the following compound.
## Task Fill blank: measured R value (DMSO/fragment) for probe 1 labeling of the compound O=C(CCc1cn(-c2ccccc2)nc1-c1ccccc1)Oc1c(F)c(F)c(F)c(F)c1F [fragment 19] is ____.
## Result 0.8

###

- Target entity: SRP54 Signal recognition particle 54 kDa protein (Homo sapiens)
- Construct: isoTOP-ABPP experiments performed in cell lysates (in vitro); endogenous in cells; host or cells: soluble proteome of human cancer cell lines (MDA-MB-231, Ramos, Jurkat)
- Sequence (P61011 whole entry): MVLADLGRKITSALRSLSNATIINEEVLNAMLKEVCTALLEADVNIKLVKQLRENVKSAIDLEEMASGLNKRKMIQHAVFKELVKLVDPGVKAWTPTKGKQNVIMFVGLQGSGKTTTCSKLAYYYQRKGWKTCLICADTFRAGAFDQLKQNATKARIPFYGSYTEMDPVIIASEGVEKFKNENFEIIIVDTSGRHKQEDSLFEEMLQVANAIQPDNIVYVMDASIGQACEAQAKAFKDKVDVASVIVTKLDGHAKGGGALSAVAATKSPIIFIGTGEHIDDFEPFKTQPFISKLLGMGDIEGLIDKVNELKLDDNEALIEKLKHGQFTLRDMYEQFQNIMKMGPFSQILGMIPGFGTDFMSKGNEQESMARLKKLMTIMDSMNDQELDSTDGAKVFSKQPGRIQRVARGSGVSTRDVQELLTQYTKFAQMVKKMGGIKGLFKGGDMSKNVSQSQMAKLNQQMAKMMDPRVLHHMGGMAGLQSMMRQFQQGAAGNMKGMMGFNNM
- Test summary: competitive isoTOP-ABPP
- Assay type: binding
- Parameters: key: R = MS1 peak area ratio, DMSO (heavy) / compound-treated (light); capped at 20
- Cond: 50 uM, 231 sol, in vitro
Measured isoTOP-ABPP reactivity ratio at lysine P61011_K81, listed per entry.

Example results:
Molecule | Result
O=C(Oc1c(F)c(F)c(F)c(F)c1F)c1ccc2ccccc2n1 [fragment 25] | 0.8
Cn1cc(CC(=O)Oc2ccc([N+](=O)[O-])cc2[N+](=O)[O-])c2ccccc21 [fragment 32] | 20.0
O=C(Oc1ccc([N+](=O)[O-])cc1[N+](=O)[O-])C(c1ccccc1)c1ccccc1 [fragment 30, 2,4-Dinitrophenyl 2,2-diphenylacetate] | 20.0
O=C(CCc1coc2cc(F)ccc2c1=O)Oc1c(F)c(F)c(F)c(F)c1F [fragment 26] | 1.0
COc1cc(CCC(=O)Oc2ccc([N+](=O)[O-])cc2[N+](=O)[O-])cc(OC)c1OC [fragment 33] | 1.3
O=C(Oc1ccc([N+](=O)[O-])cc1[N+](=O)[O-])c1cc(C(F)(F)F)cc(C(F)(F)F)c1 [fragment 31] | 0.9
O=C(CCc1cn(-c2ccccc2)nc1-c1ccccc1)Oc1ccc([N+](=O)[O-])cc1[N+](=O)[O-] [fragment 29] | 1.1

Alright, here's another molecule for you.
## Task Entry CCn1cc(C(=O)Oc2c(F)c(F)c(F)c(F)c2F)c(=O)c2ccc(C)nc21 [fragment 28] has what isoTOP-ABPP reactivity ratio at lysine P61011_K81?
## Result 0.8

###

- Target entity: KIAA1967 DBIRD complex subunit KIAA1967 (Homo sapiens, UniProt Q8N163)
- Construct: isoTOP-ABPP experiments performed in cell lysates (in vitro); endogenous in cells; host or cells: soluble proteome of human cancer cell lines (MDA-MB-231; Ramos and Jurkat also prepared)
- Sequence (Q8N163 whole entry, one chain of several): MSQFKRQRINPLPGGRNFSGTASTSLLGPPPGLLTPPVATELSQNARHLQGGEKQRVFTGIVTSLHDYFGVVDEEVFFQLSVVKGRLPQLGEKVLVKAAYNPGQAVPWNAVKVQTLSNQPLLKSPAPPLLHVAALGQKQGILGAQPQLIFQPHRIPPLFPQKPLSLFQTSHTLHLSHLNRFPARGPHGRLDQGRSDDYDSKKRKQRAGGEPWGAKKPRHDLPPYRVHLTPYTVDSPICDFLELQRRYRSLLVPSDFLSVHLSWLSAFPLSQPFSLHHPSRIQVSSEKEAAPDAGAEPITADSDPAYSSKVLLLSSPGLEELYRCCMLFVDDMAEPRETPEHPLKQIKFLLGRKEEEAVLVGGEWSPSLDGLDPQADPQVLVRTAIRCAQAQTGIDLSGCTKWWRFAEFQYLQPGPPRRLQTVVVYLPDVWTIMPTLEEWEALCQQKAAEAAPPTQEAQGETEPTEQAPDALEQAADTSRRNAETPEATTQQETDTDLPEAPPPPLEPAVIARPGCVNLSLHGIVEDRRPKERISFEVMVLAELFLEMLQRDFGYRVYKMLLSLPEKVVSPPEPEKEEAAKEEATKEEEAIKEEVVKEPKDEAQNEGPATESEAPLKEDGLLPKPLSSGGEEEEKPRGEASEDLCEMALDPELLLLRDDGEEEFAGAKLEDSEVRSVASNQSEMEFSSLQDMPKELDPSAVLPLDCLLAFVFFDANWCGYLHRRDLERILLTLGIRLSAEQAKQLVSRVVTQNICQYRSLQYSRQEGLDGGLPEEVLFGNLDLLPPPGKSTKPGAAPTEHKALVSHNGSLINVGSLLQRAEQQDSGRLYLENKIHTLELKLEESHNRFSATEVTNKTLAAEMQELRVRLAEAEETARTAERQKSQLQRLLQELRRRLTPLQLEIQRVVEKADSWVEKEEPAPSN
- Test summary: competitive isoTOP-ABPP
- Type: binding
- Cond: 50 uM, in vitro, sol, 231
isoTOP-ABPP ratio (R) at liganded lysine Q8N163_K112 for assorted compounds
// no unit, no text: just the number

Compound | Result number
O=C(Oc1ccc([N+](=O)[O-])cc1[N+](=O)[O-])c1ccc(Oc2ccccc2)cc1 [fragment 39, 2,4-Dinitrophenyl 4-phenoxybenzoate] | 1.1
CC(C)(C)OC(=O)NCCCC(=O)Oc1ccc([N+](=O)[O-])cc1[N+](=O)[O-] | 1.3
O=C(Oc1ccc([N+](=O)[O-])cc1[N+](=O)[O-])C1CCN(C(=O)OCc2ccccc2)CC1 | 1.0
O=C(Oc1ccc([N+](=O)[O-])cc1[N+](=O)[O-])C(c1ccccc1)(c1ccccc1)c1ccccc1 [fragment 42, 2,4-Dinitrophenyl 2,2,2-triphenylacetate] | 1.1
CC(=O)Oc1ccc([N+](=O)[O-])cc1[N+](=O)[O-] [fragment 43, 2,4-Dinitrophenyl acetate] | 1.0

## Task Request the reported isoTOP-ABPP ratio (R) at liganded lysine Q8N163_K112 associated with O=C(Oc1ccc([N+](=O)[O-])cc1[N+](=O)[O-])c1ccc(-c2ccccc2)cc1
## Result 1.1

## Task Query: isoTOP-ABPP ratio (R) at liganded lysine Q8N163_K112; subject: O=C(Oc1ccc([N+](=O)[O-])cc1[N+](=O)[O-])c1ccccc1Nc1cccc(C(F)(F)F)c1
## Result 1.5

## Task Given the entry O=C(CCc1coc2cc(F)ccc2c1=O)Oc1ccc([N+](=O)[O-])cc1[N+](=O)[O-] , report its measured isoTOP-ABPP ratio (R) at liganded lysine Q8N163_K112.
## Result 1.1

###

- Target entity: RTN4 Reticulon-4 (Homo sapiens, UniProt Q9NQC3)
- Construct: endogenous in cells; host or cells: MDA-MB-231 lysate
- Sequence (Q9NQC3 1-1192): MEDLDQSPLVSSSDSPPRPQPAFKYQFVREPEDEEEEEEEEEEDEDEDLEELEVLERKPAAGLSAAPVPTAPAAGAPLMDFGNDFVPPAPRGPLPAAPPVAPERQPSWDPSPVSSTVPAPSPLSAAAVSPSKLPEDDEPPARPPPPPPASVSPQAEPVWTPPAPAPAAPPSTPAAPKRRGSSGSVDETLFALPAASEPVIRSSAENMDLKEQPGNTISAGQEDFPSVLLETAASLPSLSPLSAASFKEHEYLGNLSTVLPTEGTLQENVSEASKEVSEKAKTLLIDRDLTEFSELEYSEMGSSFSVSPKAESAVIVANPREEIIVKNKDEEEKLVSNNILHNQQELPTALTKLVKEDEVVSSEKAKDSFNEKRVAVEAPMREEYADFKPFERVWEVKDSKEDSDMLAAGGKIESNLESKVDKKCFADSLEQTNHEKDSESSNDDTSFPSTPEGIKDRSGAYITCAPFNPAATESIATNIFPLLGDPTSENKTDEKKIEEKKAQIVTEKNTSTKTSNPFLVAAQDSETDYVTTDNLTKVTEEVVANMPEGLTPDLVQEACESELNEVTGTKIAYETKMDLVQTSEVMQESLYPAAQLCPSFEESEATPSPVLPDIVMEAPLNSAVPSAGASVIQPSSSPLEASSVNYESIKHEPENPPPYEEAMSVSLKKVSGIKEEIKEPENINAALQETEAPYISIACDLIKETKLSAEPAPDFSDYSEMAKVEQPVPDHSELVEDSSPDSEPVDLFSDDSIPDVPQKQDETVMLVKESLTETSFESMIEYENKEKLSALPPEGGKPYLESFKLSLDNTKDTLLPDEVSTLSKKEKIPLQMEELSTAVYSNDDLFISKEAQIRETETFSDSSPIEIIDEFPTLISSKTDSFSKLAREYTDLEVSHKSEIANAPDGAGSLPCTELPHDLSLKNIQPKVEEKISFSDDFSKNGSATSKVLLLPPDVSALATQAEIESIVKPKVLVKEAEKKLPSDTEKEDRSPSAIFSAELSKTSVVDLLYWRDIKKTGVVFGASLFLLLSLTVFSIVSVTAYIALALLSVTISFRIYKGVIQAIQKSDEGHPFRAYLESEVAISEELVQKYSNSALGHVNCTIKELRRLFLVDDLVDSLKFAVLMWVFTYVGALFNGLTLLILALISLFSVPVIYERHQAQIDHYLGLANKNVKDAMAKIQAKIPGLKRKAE
- Test summary: competitive isoTOP-ABPP
- Format: binding
- Cond: 50 uM_231_sol_in vitro
Overview of reported isoTOP-ABPP ratio, lysine Q9NQC3_K1104 across a group of compounds:
Reply: number alone, nothing else.

Compound | Target entity | isoTOP-ABPP ratio, lysine Q9NQC3_K1104
O=C(ON1C(=O)CCC1=O)c1cc(C(F)(F)F)cc(C(F)(F)F)c1 [fragment 46] | RTN4 Reticulon-4 (Homo sapiens, UniProt Q9NQC3) | 2.5
NC(=O)c1cc(C(F)(F)F)cc(C(F)(F)F)c1 [fragment 51, reference compound] | RTN4 Reticulon-4 (Homo sapiens, UniProt Q9NQC3) | 0.7
N#Cc1ccc(C(=O)Oc2ccc([N+](=O)[O-])cc2[N+](=O)[O-])cc1 [fragment 44, 2,4-Dinitrophenyl 4-cyanobenzoate] | RTN4 Reticulon-4 (Homo sapiens, UniProt Q9NQC3) | 2.6

# next compound below
## Task Form field: reported isoTOP-ABPP ratio, lysine Q9NQC3_K1104 of O=C(Oc1c(F)c(F)c(C(F)(F)F)c(F)c1F)c1cc(C(F)(F)F)cc(C(F)(F)F)c1 [fragment 47]
## Result 3.8
